Examples of molecules with documented pIC50 follow.
Tested on: BT-474 cell
ASSAY_EXPLANATION: inhibitory activity on cell proliferation (Cell-Titer-Glo), BT-474
Format: cell-based
TEST_PARAMETERS: Homo sapiens, BT-474, 72 h; incubation for 3 days, Cell-Titer-Glo
pIC50: −log10 of the molar value.
PARAMETER: pIC50

* C=CC(=O)N1[C@@H]2CC[C@H]1C[C@H](Oc1cc3c(Nc4ccc(Cl)c(Cl)c4F)ncnc3cc1OC)C2 | 9.41
* C=CC(=O)N1[C@@H]2CC[C@H]1C[C@H](Oc1cc3c(Nc4ccc(Cl)c(Cl)c4F)ncnc3cc1OCC)C2 | 9.34

----------
TARGET_OR_TEST_SYSTEM: UniProtKB P08684
Sequence (P08684 whole entry): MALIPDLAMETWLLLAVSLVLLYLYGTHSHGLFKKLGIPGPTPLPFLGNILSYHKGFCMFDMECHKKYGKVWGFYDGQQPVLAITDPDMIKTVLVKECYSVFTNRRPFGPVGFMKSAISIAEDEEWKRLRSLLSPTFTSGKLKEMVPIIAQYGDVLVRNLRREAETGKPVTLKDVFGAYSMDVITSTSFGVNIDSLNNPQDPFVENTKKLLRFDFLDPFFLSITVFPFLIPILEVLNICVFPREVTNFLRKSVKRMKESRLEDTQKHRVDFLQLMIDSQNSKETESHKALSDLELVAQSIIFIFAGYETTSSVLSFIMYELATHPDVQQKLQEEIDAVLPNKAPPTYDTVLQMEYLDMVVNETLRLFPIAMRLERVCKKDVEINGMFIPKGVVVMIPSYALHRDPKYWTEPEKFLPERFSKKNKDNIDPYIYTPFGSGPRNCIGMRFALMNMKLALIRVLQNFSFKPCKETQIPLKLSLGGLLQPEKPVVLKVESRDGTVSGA
pIC50: −log10 of the molar value.
Below: a set of entries, each annotated with reported pIC50.
PARAMETER: pIC50

* C=CC(=O)N1CCC(Oc2cc3c(Nc4ccc(Cl)c(Cl)c4F)ncnc3cc2OC)CC1 [Poziotinib, reference compound] | < 4.30
* C=CC(=O)N1[C@@H]2CC[C@H]1C[C@H](Nc1cc3c(Nc4ccc(Cl)c(Cl)c4F)ncnc3cc1OC)C2 [Example 38] | < 4.30

----------
TARGET_OR_TEST_SYSTEM: CYP2C9 (Homo sapiens)
Sequence (P11712 whole entry): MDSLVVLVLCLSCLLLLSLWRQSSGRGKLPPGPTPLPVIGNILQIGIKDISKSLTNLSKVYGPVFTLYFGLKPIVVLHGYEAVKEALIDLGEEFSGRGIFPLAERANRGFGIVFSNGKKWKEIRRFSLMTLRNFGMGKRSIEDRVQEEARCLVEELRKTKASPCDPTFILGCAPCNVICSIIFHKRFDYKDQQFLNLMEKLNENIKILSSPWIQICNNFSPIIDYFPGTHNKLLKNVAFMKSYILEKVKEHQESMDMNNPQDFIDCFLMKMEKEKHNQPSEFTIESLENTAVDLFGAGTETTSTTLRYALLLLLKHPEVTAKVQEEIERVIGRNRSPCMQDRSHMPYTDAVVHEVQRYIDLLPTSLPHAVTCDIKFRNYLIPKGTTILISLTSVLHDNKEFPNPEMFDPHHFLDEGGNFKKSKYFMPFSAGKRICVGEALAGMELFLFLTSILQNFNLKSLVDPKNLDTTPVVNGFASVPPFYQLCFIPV
pIC50: −log10 of the molar value.
PARAMETER: pIC50

- C=CC(=O)N1CCC(Oc2cc3c(Nc4ccc(Cl)c(Cl)c4F)ncnc3cc2OC)CC1 [Poziotinib, reference compound]: 5.10
- C=CC(=O)N1[C@@H]2CC[C@H]1C[C@H](Nc1cc3c(Nc4ccc(Cl)c(Cl)c4F)ncnc3cc1OC)C2 [Example 38]: 4.80

----------
The following compounds each carry a recorded pIC50 for HER2 (ErbB2) (Homo sapiens, UniProt P04626).
pIC50: −log10 of the molar value.
PARAMETER: pIC50

• C=CC(=O)N1[C@@H]2CC[C@H]1C[C@H](Oc1cc3c(Nc4ccc(F)c(Cl)c4F)ncnc3cc1OC)C2 = 8.40
• C=CC(=O)N1[C@@H]2CC[C@H]1C[C@H](Nc1cc3c(Nc4ccc(Cl)c(Cl)c4F)ncnc3cc1OC)C2 = 8.30
• C=CC(=O)N1[C@@H]2CC[C@H]1C[C@H](Oc1cc3c(Nc4ccc(F)c(Cl)c4)ncnc3cc1OC)C2 = 8.30
• C=CC(=O)N1[C@@H]2CC[C@H]1C[C@H](Oc1cc3c(Nc4ccc(Cl)c(Cl)c4F)ncnc3cc1OCCOC)C2 = 8.15
• C=CC(=O)N1C[C@H]2C[C@@H](C1)[C@H]2Oc1cc2c(Nc3ccc(Cl)c(Cl)c3F)ncnc2cc1OCCCN1CCOCC1 = 7.92
• C=CC(=O)N1[C@@H]2CC[C@H]1C[C@H](Oc1cc3c(Nc4ccc(Cl)c(Cl)c4F)ncnc3cc1O[C@H]1CCOC1)C2 = 8.30
• C=CC(=O)N1[C@@H]2CC[C@H]1C[C@H](Oc1cc3c(Nc4ccc(Cl)c(Cl)c4F)ncnc3cc1OCCO)C2 = 8.52

----------
This document collects IC50 values reported for HER4 (ErbB4) (Homo sapiens).
PARAMETER: IC50 (nM)

* C=CC(=O)N1[C@@H]2CC[C@H]1C[C@H](Nc1cc3c(Nc4ccc(Cl)c(Cl)c4F)ncnc3cc1OC)C2 | 3
* C=CC(=O)N1[C@@H]2CC[C@H]1C[C@@H](Oc1cc3c(Nc4ccc(Cl)c(Cl)c4F)ncnc3cc1OC)C2 | 61
* C=CC(=O)N1[C@@H]2CC[C@H]1C[C@H](Oc1cc3c(Nc4ccc(Cl)c(Cl)c4F)ncnc3cc1OCCOC)C2 | 3
* C=CC(=O)N1C[C@H]2C[C@@H](C1)[C@H]2Oc1cc2c(Nc3ccc(Cl)c(Cl)c3F)ncnc2cc1OCCCN1CCOCC1 | 5
* C=CC(=O)N1[C@@H]2CC[C@H]1C[C@H](Oc1cc3c(Nc4ccc(Cl)c(Cl)c4F)ncnc3cc1OC)C2 | 3.5
* C=CC(=O)N1C[C@H]2C[C@@H](C1)[C@H]2Oc1cc2c(Nc3ccc(Cl)c(Cl)c3F)ncnc2cc1OC | 10
* C=CC(=O)N1[C@@H]2CC[C@H]1C[C@H](Oc1cc3c(Nc4ccc(F)c(Cl)c4F)ncnc3cc1OC)C2 | 2
* C=CC(=O)N1[C@@H]2CC[C@H]1C[C@H](Oc1cc3c(Nc4ccc(Cl)c(Cl)c4)ncnc3cc1OC)C2 | 3
* C=CC(=O)N1C[C@H]2C[C@@H](C1)[C@H]2Oc1cc2c(Nc3cccc(Cl)c3F)ncnc2cc1OC | 157
* C=CC(=O)N1[C@@H]2CC[C@H]1C[C@H](Oc1cc3c(Nc4ccc(Cl)c(Cl)c4F)ncnc3cc1OCCCN1CCOCC1)C2 | 3
* C=CC(=O)N1[C@@H]2CC[C@H]1C[C@H](Oc1cc3c(Nc4ccc(Cl)c(Cl)c4F)ncnc3cc1OCCCO)C2 | 3
* C=CC(=O)N1C[C@H]2C[C@@H](C1)[C@H]2Oc1cc2c(Nc3ccc(OC(F)(F)F)c(Cl)c3)ncnc2cc1OC | 17
* C=CC(=O)N1C[C@H]2C[C@@H](C1)[C@H]2Nc1cc2c(Nc3ccc(Cl)c(Cl)c3F)ncnc2cc1OC | 8
* C=CC(=O)N1[C@@H]2CC[C@H]1C[C@H](Oc1cc3c(Nc4ccc(Cl)c(Cl)c4F)ncnc3cc1O[C@H]1CCOC1)C2 | 4
